# experimental.protocol: Selectivity index, ratio of IC50 for cytotoxicity against HEK293 cells to IC50 for antimalarial activity against chloroquine sensitive Plasmodium falciparum 3D7
# Type: toxicity, cell-based
# condition.info: human, read-out: Ratio IC50
reported.property: selectivity ratio

Take a look at these entries with their results.
CCc1nc(N)nc(N)c1-c1ccc(Cl)cc1 = > 1010
COC(=O)c1cc2c(c(OC)c1OC)[C@H](C)C[C@@H](OC(=O)Nc1ccc(F)cc1)[C@H]2[C@@H](C)CCC=C(C)C = 9.2
COC(=O)c1cc2c(c(OC)c1OC)[C@H](C)C[C@@H](OC(=O)Nc1cc(C(F)(F)F)cc(C(F)(F)F)c1)[C@H]2[C@@H](C)CCC=C(C)C = 17.5
COC(=O)c1cc2c(c(OC)c1OC)[C@H](C)C[C@@H](OC(=O)Nc1ccc(Cl)cc1)[C@H]2[C@@H](C)CCC=C(C)C = 6.9
COC(=O)c1cc2c(c(OC)c1OC)[C@H](C)C[C@@H](OC(=O)Nc1ccccc1)[C@H]2[C@@H](C)CCC=C(C)C = 6.9

Look at each compound and report its selectivity ratio.
1. COC(=O)c1cc2c(c(OC)c1OC)[C@H](C)C[C@@H](OC(=O)Nc1ccc(C)cc1)[C@H]2[C@@H](C)CCC=C(C)C
2. C[C@H]1[C@@H](O)O[C@@H]2O[C@@]3(C)CC[C@H]4[C@H](C)CC[C@@H]1[C@@]24OO3
3. COC(=O)c1cc2c(c(OC)c1OC)[C@H](C)C[C@@H](OC(=O)Nc1cccc(Cl)c1)[C@H]2[C@@H](C)CCC=C(C)C

1. 6.6
2. > 6680
3. 8.8
